tested on: MS2 coat protein; assay: apparent KD of MS2 coat protein; designed switch direction (-1 OFF switch, 1 ON switch): -1; higher = weaker reporter binding; conditions: input ligand: FMN 200 uM

Sequence record: CAGUACUGAGGAUAUACAUGAGGAUCACCCAUGUGCUCUAGCUAGGAUACUAGCAUUAGUAGAAGGCAGUACUG [Fiskers Ex 3 828 mod 8] (Eterna round: R96, puzzle: Exclusion 3)
Study system: MS2 coat protein
apparent KD of MS2 coat protein [nM]: 132
//
Sequence record: AGAGUGCUGCGAGGAUAUACAUGAGGAUCACCCAUGUGGAUCUGUGAGGGAAAACCUCACAGGAUGUAGAAGGCGCAGUACUCA [Mat - Exclusion NG 2 - Mod of JL - D50] (Eterna round: R96, puzzle: Exclusion NG 2)
Study system: MS2 coat protein
apparent KD of MS2 coat protein [nM]: 134
//
Sequence record: CAGUACUGAGGAUAUACAUGAGGAUCACCCAUGUGAAAUGCAUAGGAAACUAUGCUAUGUAGAAGGCAGUACUG [Eli x3 4.03] (Eterna round: R97, puzzle: Exclusion 3)
Study system: MS2 coat protein
apparent KD of MS2 coat protein [nM]: 108
//
Sequence record: UAUUAGCAAGUGAGGUCCCACAUGAGGAUCACCCAUGUGCUCGUCUUAUAAGGUACUGUGACGAAAGUCACGGUACC [Sensor 3, v1 - 95 v4] (Eterna round: R97, puzzle: Sensor, turn-off variant 1)
Study system: MS2 coat protein
apparent KD of MS2 coat protein [nM]: 48.7
//
Sequence record: AUUAUUUCAGGAUAUGCCUUCAAAGACAUGAGGAUCACCCAUGUUUUCAGUGGCAGGAUCGCAGAAGGGAGAUAUU [EX5 C.29] (Eterna round: R97, puzzle: Exclusion 5)
Study system: MS2 coat protein
apparent KD of MS2 coat protein [nM]: 15.6
